Where these numbers come from: ChEMBL document CHEMBL1201862

Please respond with reported GI50 for every item in the list.
Test system: DMS-114
Assay: NCI tumour cell line growth inhibition, 48 h
Activity calls are given as the source filed them. Cut-off read from the data, not from the text of the source: active = GI50 up to about 1.1 µM and inactive = higher.

**Query** Give GI50 for the following compound: C/C(=N\NC(C)(C)C)c1sc(-c2nc(C)c(/C(C)=N/NC(C)(C)C)s2)nc1C
**Result** > 100 µM (inactive)

**Query** Give GI50 for the following compound: CC(=O)/C=C/c1c[nH]c(=O)[nH]c1=O
**Result** 242 µM (inactive)

**Query** Give GI50 for the following compound: CCOc1cc(/C=C/C=C/C=C/c2ccc(N(C)C)cc2)[s+]c2ccccc12
**Result** 5.61 µM (inactive)

**Query** Give GI50 for the following compound: CC(=O)OCC12CC(CC1OC(C)=O)c1ccccc12 (stereo not given)
**Result** > 100 µM (inactive)

**Query** Give GI50 for the following compound: COc1cc2c(cc1O)[C@H](C)C(c1ccccc1OC)O2 (stereo not given in full)
**Result** 2.8 µM (inactive)

**Query** Give GI50 for the following compound: O=C1CCC2CCc3cccc4oc1c2c34 (stereo not given)
**Result** > 100 µM (inactive)

**Query** Give GI50 for the following compound: CCOC(=O)C(NC(=O)c1nc[nH]c1[N+](=O)[O-])C(C)C (stereo not given)
**Result** > 100 µM (inactive)

**Query** Give GI50 for the following compound: CC(C)(C)[Si](OC1CC(n2cnc3c(N)ncnc32)OC1CO)(c1ccccc1)c1ccccc1 (stereo not given)
**Result** 23.7 µM (inactive)

**Query** Give GI50 for the following compound: Nc1nc(-c2ccco2)cc(-c2ccc(CO)o2)n1
**Result** > 100 µM (inactive)

**Query** Give GI50 for the following compound: CCOc1cccc2cccnc12
**Result** > 100 µM (inactive)
